Entries annotated with measured activity coefficient
experiment: activity coefficient (dimensionless); of the first substance listed, at infinite dilution; xn = mol fraction of the nth substance listed; details: 338.15 K; Liquid; Chromatography; x1 = 0
value-kind: activity coefficient

| compound | value-kind | observed |
| --- | --- | --- |
| CCCOCCC [dipropyl ether] + CCCCCCn1cc[n+](C)c1.N#C[B-](C#N)(C#N)C#N | activity coefficient | 3.73 |
| c1ccncc1 [pyridine] + CCCCCCn1cc[n+](C)c1.N#C[B-](C#N)(C#N)C#N | activity coefficient | 0.4 |
| C1CCCCCCC1 [cyclooctane] + CCCCCCn1cc[n+](C)c1.N#C[B-](C#N)(C#N)C#N | activity coefficient | 8.75 |
| Cc1ccccc1 [toluene] + CCCCCCn1cc[n+](C)c1.N#C[B-](C#N)(C#N)C#N | activity coefficient | 1.02 |
| CCCCCCC [heptane] + CCCCCCn1cc[n+](C)c1.N#C[B-](C#N)(C#N)C#N | activity coefficient | 14.5 |
| CCCCO [butan-1-ol] + CCCCCCn1cc[n+](C)c1.N#C[B-](C#N)(C#N)C#N | activity coefficient | 1.22 |
| CCCC(C)=O [pentan-2-one] + CCCCCCn1cc[n+](C)c1.N#C[B-](C#N)(C#N)C#N | activity coefficient | 0.529 |
| CCC(C)CC [3-methylpentane] + CCCCCCn1cc[n+](C)c1.N#C[B-](C#N)(C#N)C#N | activity coefficient | 9.5 |

###

Entries annotated with measured activity coefficient
assay: activity coefficient (dimensionless); of the first substance listed, at infinite dilution; xn = mol fraction of the nth substance listed; details: 348.15 K; Liquid; Chromatography; x1 = 0

| compound | activity coefficient |
| --- | --- |
| CC(C)CO [2-methyl-1-propanol] + CCCCCCn1cc[n+](C)c1.N#C[B-](C#N)(C#N)C#N | 1.11 |
| CCC(C)CC [3-methylpentane] + CCCCCCn1cc[n+](C)c1.N#C[B-](C#N)(C#N)C#N | 9.15 |
| CC(C)=O [acetone] + CCCCCCn1cc[n+](C)c1.N#C[B-](C#N)(C#N)C#N | 0.363 |
| C1CCCC1 [cyclopentane] + CCCCCCn1cc[n+](C)c1.N#C[B-](C#N)(C#N)C#N | 4.14 |

###

test: activity coefficient (dimensionless); of the first substance listed, at infinite dilution; xn = mol fraction of the nth substance listed; details: 358.15 K; Liquid; Chromatography; x1 = 0
Mark fulfilled for activity coefficient under 1, not fulfilled if at or over.

| compound | group-label |
| --- | --- |
| CC(C)CO [2-methyl-1-propanol] + CCCCCCn1cc[n+](C)c1.N#C[B-](C#N)(C#N)C#N | not fulfilled |
| C1CCCCCC1 [cycloheptane] + CCCCCCn1cc[n+](C)c1.N#C[B-](C#N)(C#N)C#N | not fulfilled |
| C=CCCCCC [1-heptene] + CCCCCCn1cc[n+](C)c1.N#C[B-](C#N)(C#N)C#N | not fulfilled |
| Cc1ccccc1 [toluene] + CCCCCCn1cc[n+](C)c1.N#C[B-](C#N)(C#N)C#N | not fulfilled |
| CO [methanol] + CCCCCCn1cc[n+](C)c1.N#C[B-](C#N)(C#N)C#N | fulfilled |
| C#CCCCC [1-hexyne] + CCCCCCn1cc[n+](C)c1.N#C[B-](C#N)(C#N)C#N | not fulfilled |
| CCCC(C)=O [pentan-2-one] + CCCCCCn1cc[n+](C)c1.N#C[B-](C#N)(C#N)C#N | fulfilled |
| CCC(C)CC [3-methylpentane] + CCCCCCn1cc[n+](C)c1.N#C[B-](C#N)(C#N)C#N | not fulfilled |

The values you see were collected from the NIST ThermoML archive (doi:10.1016/j.jct.2011.11.025).
